Data provenance is PubChem BioAssay AID1845211.

Tested on: NCI-H322M multicellular tumor spheroids, viability (% test/control)
experiment_description: Anticancer human tumor NCI-H322M cell line growth inhibition;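 note: spheroids exposed to compound for seven days before readout; 100% = DMSO vehicle control wells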
condition_summary: second compound 0.3 µM; first compound 0.0316 µM; stronger effect = lower value
assay_metric: viability, T/C (%)
Return type: number; implicit unit %.

Input line: Tell me reported viability, T/C for CC(C)n1c(=O)n(C)c2cnc3cc(F)c(-c4ccc(OCCCN5CCCCC5)nc4)cc3c21 + CC[C@@]1(O)C(=O)OCc2c1cc1n(c2=O)Cc2cc3c(CN(C)C)c(O)ccc3nc2-1 , tested with NCI-H322M multicellular tumor spheroids, viability (% test/control).
Output line: 53.3

Input line: # value lookup — system NCI-H322M multicellular tumor spheroids, viability (% test/control), readout viability, T/C, item Cc1cc(C)c(CNC(=O)c2cc(-c3ccc(CN4CCOCC4)cc3)cc3c2cnn3C2CCCC2)c(=O)[nH]1 + CC[C@@]1(O)C(=O)OCc2c1cc1n(c2=O)Cc2cc3c(CN(C)C)c(O)ccc3nc2-1
Output line: 54.7

Input line: Report viability, T/C for COc1cc(C)[nH]c(=O)c1CN1CCc2c(Cl)cc(C(OC)C3COC3)c(Cl)c2C1=O (stereo not drawn) + CC[C@@]1(O)C(=O)OCc2c1cc1n(c2=O)Cc2cc3c(CN(C)C)c(O)ccc3nc2-1 tested on NCI-H322M multicellular tumor spheroids, viability (% test/control).
Output line: 60.5

* * *

Test system: NCI-H322M multicellular tumor spheroids, viability (% test/control)
experiment_description: Anticancer human tumor NCI-H322M cell line growth inhibition;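 note: spheroids exposed to compound for seven days before readout; 100% = DMSO vehicle control wells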
condition_summary: second compound 10 µM; first compound 0.1 µM; stronger effect = lower value
Protocol: Multicellular complex tumor spheroid response to DNA repair inhibitors in combination with DNA-damaging drugs This study explores the anticancer activities of DNA-damaging drugs and inhibitors of DNA damage repair, both as single agents and in combinations. […] Twenty-six patient-derived or established malignant cell lines were evaluated representing sarcoma, melanoma, small cell lung cancer (SCLC), non-small cell lung cancer (NSCLC), as well as bladder, ovarian and pancreatic cancers. […]
viability, T/C under 80% gets Condition met, anything at or over 80% gets Condition not met.

Input line: For Cc1cc(C)c(CNC(=O)c2cc(-c3ccc(CN4CCOCC4)cc3)cc3c2cnn3C2CCCC2)c(=O)[nH]1 + Cn1nnc2c(C(N)=O)ncn2c1=O , is the recorded viability, T/C below the cut-off of 80%?
Output line: Condition not met

Input line: I'd appreciate it if you could check whether CC1COCCN1c1cc(-c2ccnn2C)c2ccnc(-c3ccn[nH]3)c2n1 (stereo unspecified) + Cn1nnc2c(C(N)=O)ncn2c1=O has viability, T/C smaller than 80%.
Output line: Condition met

Input line: A record lists COc1ccc([C@@H](O)c2cc(-c3ncnc4cc(N5CCOCC5)ccc34)c(F)cc2Cl)nn1 + Cn1nnc2c(C(N)=O)ncn2c1=O . Is its viability, T/C below 80%?
Output line: Condition met

Input line: Does the reported viability, T/C of the following compound sit strictly below 80%? COc1cc(C)[nH]c(=O)c1CN1CCc2c(Cl)cc(C(OC)C3COC3)c(Cl)c2C1=O (stereo unspecified) + Cn1nnc2c(C(N)=O)ncn2c1=O
Output line: Condition not met

Input line: Does CC(C)n1c(=O)n(C)c2cnc3cc(F)c(-c4ccc(OCCCN5CCCCC5)nc4)cc3c21 + Cn1nnc2c(C(N)=O)ncn2c1=O have viability, T/C strictly under 80%?
Output line: Condition not met
